- measurement.description: Half-wave potentials by cyclic voltammetry
- Type: physicochemical
- experimental.context: acetonitrile, platinum electrode, room temperature, negative of the potential
property: −E^I½ (mV)

molecule | −E^I½ (mV)
CCCCCCCCCCCC(=O)C1=C(Nc2ccccc2)C(=O)c2ccccc2C1=O [Compound 3] | 484
COc1ccc(C(=O)C2=C(Nc3ccccc3)C(=O)c3ccccc3C2=O)cc1OC [Compound 7] | 604
O=C(C1=C(Nc2ccccc2)C(=O)c2ccccc2C1=O)c1ccccc1 [Compound 4] | 695
CCCCCC(=O)C1=C(Nc2ccccc2)C(=O)c2ccccc2C1=O [Compound 1] | 475
